Recorded values, source patent US20040166544A1.

Biological target: T1, biotinylated c-Met-Fc (R&D Systems, #358-MT-100/CF, 5.1 biotin per c-Met molecule) (human, UniProt P08581 25-932, biotinylated, 5.1 biotin per c-Met molecule (Pierce #21335))
T1 construct: extracellular domain; Captured on a streptavidin (SA) chip for the BIAcore study of the IgGs; Fc part of the bought chimera not given
T1 sequence (P08581 25-932): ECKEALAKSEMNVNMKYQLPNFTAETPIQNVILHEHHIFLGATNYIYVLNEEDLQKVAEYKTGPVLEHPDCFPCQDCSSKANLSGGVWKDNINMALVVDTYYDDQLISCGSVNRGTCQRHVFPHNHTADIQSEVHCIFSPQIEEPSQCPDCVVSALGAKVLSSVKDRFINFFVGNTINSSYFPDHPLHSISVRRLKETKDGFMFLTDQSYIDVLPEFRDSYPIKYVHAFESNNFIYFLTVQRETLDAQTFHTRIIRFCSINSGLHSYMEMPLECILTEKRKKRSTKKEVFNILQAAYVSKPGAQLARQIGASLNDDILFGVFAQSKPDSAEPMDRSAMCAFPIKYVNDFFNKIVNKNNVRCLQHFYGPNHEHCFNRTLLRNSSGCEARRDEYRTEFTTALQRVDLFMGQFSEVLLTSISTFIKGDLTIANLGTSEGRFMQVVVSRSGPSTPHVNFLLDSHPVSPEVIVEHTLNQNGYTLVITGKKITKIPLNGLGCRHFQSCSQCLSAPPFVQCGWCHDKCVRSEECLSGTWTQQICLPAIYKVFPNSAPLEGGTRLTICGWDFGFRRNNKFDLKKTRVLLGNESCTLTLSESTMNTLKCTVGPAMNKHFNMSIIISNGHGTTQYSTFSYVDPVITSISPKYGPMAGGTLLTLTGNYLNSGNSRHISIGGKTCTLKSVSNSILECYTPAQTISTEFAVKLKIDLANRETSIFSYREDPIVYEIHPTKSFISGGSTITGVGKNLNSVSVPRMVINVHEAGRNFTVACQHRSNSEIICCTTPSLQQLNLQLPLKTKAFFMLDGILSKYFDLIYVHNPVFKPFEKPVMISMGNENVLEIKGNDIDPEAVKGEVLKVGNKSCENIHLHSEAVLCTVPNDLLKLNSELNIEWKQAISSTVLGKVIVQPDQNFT
Assay: SPR (BIAcore), biotinylated c-Met-Fc captured on streptavidin chip, IgG as analyte, bivalent model
Procedure: The binding properties (on-rate, off-rate and affinity) of c-Met monoclonal antibodies (IgG or Fab versions) with human c-Met extracellular domain was determined using surface plasmon resonance, or BLAcore, technology. […] The antibody sample to be analyzed was prepared in HEPES buffer (0.15M NaCl, 10 mM HEPES, 3.4 mM EDTA, 0.005% surfactant P-20, pH 7.4) to form a set of solutions varied in concentration from 0.78 nM to 100 nM. […]
Entries and their koff values follow.
Provide the reading as a plain figure in s⁻¹.

>  <Binder>
c-Met IgG antibody 12123 (antibody, V domains shown, IgG of scFv PGIA-3-B2; The VL reverse cloning primer RH62 codes ...TVLG whereas the scFv entry ends ...TVLS; also called 12123 IgG; IgG of scFv PGIA-03-B2 (PGIA-3-B2)) VH: QVQLQESGPGLVKPSATLSLTCAVSGGSISSNHWWSWVRQSPGKGLEWIGEIYTYGGANYNPSLKSRVDISMDKSKNQFSLHLSSVTAADTAVYYCGRHLTGYDCFDIWGQGTLVTVSS VL: QAVLTQPSSVSGAPGQRVTISCTGSSSNIGAGYDVHWYQQLPGTAPKLLIYGNSNRPSGVPDRFSGSKSGTSASLAITGLQAEDEADYYCQSYDSSLSGVFGTGTQLTVLS

>  <Reported Result>
0.00329

$$$$

Looking for the measured koff of c-Met IgG antibody 12136 (antibody, V domains shown, IgG of scFv PGIA-4-A8; also called 12136 IgG; IgG of scFv PGIA-04-A8 (PGIA-4-A8)) VH: QVQLQESGPGLVKPSETLSLTCNVSGGSIRNYFWSWIRQPPGQGLEYIGYIYYSGTTDYNPSLKGRVTISLDTSKTQFSLKLNSVTAADTAFYYCVRGPNKYAFDPWGQGTLVTVSS VL: SYELTQPPSVSVSPGQTASITCSGDKLGDKFASWYQQKAGQSPVLVIYRDTKRPSGIPERFSGSNSGNTATLTISGTQAMDEADYYCQAWDSSTAVFGTGTKVTVLG , can you help?
0.000229

Looking for the measured koff of c-Met IgG antibody 12133 (antibody, V domains shown, IgG of scFv PGIA-4-A5; also called 12133 IgG; IgG of scFv PGIA-04-A5 (PGIA-4-A5)) VH: QVQLQESGPGLVKPSGTLSLTCAVSGGSISTSDWWSWVRRPPGKGLEWIGEIYHSGSTNYHPSLKSRVTISLDKSKNQFSLKLSSVTAADTAVYYCAREGGHSGSYPLDYWGRGTLVTVSS VL: NFMLTQPHSVSESPGKTATISCTGSGGSIARSYVQWYQQRPGRAPSIVIYEDYQRPSGVPDRFSGSIDSSSNSASLTITGLKTDDEADYYCQSSDDNNNVVFGGGTKVTVLG , can you help?
0.000598
